ASSAYED SYSTEM: Gal(b1-4)GlcNAc(b1-2)Man(a1-3)[Gal(b1-4)GlcNAc(b1-2)Man(a1-6)][Gal(b1-4)GlcNAc(b1-4)]Man(b1-4)GlcNAc(b1-4)[Fuc(a1-6)]GlcNAc
MEASUREMENT PROTOCOL: glycan array binding signal (z-score within array); higher = stronger binding
STUDY CONDITIONS: glycan notation: IUPAC condensed, linker removed
Only a selection was taken, and the strongest signals are over-represented in it overall.
MEASURED METRIC: glycan array binding signal (z-score)
// response body must contain only the number

// below: answered binders
OGAN (protein) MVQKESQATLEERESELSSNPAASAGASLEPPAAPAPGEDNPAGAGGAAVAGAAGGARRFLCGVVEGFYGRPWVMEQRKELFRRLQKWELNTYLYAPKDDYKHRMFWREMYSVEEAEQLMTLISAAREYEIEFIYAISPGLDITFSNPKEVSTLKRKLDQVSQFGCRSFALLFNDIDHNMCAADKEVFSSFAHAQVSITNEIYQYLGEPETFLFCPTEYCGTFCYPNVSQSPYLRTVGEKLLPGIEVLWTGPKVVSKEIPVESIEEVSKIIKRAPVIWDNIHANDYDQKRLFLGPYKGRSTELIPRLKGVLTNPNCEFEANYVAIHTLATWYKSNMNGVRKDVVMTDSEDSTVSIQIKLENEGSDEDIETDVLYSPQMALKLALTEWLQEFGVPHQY	-0.086
OVGAL11 (Ovis aries), AAF64320 (protein) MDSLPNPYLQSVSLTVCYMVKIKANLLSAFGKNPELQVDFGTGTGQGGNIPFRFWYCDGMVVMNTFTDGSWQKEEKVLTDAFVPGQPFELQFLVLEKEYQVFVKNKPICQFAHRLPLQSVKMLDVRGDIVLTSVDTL	-0.011
BTL (Bryothamnion triquetrum) (protein) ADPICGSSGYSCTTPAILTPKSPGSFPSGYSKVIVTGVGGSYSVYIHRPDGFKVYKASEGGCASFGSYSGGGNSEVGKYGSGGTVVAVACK	0.352
AT3G09350(27) (Arabidopsis thaliana), Q84J81 (protein) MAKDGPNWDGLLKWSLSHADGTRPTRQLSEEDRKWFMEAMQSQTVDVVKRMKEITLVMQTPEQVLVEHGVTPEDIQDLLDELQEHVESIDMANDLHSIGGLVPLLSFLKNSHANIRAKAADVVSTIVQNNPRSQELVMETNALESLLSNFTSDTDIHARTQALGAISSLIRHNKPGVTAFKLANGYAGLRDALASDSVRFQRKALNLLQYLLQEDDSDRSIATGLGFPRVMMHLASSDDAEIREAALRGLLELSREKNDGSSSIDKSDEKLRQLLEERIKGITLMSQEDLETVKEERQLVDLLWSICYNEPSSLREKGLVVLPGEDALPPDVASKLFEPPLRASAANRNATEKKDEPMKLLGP	-0.391

// switching to the query binder
Query :: Dear colleague, I am looking for the recorded glycan array binding signal (z-score) of the following binder: Gal 9 (Homo sapiens), O00182 (protein) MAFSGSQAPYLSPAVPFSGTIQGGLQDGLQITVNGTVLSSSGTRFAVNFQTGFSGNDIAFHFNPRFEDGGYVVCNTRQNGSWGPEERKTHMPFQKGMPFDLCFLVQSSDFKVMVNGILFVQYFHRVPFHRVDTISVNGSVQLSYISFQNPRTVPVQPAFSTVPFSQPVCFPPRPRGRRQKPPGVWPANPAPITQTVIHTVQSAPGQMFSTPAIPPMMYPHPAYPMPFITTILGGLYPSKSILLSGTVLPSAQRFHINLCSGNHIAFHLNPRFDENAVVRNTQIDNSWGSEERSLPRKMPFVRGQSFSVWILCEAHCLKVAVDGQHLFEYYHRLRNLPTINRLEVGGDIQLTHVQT
Result :: -0.269
